Target: T1, cynomolgus monkey recombinant ADAMTS5 (cynomolgus monkey, UniProt Q9UNA0 262-622 (human entry), limits assumed)
T1 construct: in house, HEK293, His tag in the entry; also called cyno ADAMTS5
T1 chain: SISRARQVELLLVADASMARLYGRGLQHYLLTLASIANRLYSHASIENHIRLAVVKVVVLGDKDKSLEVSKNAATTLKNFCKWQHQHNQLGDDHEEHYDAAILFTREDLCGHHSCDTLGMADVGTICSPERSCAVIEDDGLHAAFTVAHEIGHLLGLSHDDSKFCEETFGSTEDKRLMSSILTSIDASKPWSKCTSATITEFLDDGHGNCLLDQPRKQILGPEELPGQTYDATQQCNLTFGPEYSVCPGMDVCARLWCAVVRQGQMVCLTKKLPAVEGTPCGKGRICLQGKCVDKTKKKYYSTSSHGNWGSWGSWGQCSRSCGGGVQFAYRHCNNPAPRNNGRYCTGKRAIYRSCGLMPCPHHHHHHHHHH
Test: SPR off-rate, Biacore T100, ADAMTS5 immobilised, experiment 1
Reported log10(koff) values for a set of binders
Quantity measured: log10(koff) (log10 of the value in s⁻¹)

Binder	Recorded measurement
Nanobody 2F03 (VHH, tagged as tested (anti-Flag detection, IMAC); also called 02F03; 2F3) VHH: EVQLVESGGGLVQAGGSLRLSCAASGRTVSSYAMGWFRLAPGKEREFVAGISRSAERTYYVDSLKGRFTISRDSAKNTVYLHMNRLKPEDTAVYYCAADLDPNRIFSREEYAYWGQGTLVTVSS	-4.66
Nanobody 2D07 (VHH, tagged as tested (anti-Flag detection, IMAC); also called 02D07; 2D7) VHH: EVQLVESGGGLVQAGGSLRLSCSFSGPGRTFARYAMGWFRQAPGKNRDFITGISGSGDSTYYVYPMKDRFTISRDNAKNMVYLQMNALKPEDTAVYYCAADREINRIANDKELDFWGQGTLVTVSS	-3.01
Nanobody 11B06 (VHH, tagged as tested (anti-Flag detection, IMAC)) VHH: EVQLVESGGGLVQAGGSLRLSCAASGLTFRRNAMGWFRQAPGKERELLAGINWSGGTTYYVDSVKGRFTISRDNAKNTVDLQMISPKPEDTAVYYCAADGDIGTLVNDENPRYWGQGTLVTVSS	-3.85
Nanobody 9D03 (VHH, tagged as tested (anti-Flag detection, IMAC); also called 09D03; 9D3) VHH: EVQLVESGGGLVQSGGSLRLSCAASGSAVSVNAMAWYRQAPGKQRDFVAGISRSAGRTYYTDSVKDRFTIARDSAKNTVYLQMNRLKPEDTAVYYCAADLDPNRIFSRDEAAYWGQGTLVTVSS	-3.04
Nanobody 3D01 (VHH, tagged as tested (anti-Flag detection, IMAC); also called 03D01) VHH: EVQLVESGGGLVQAGGSLRLSCAPSGFTFSPYYMGWFRQAPGKERDFVAAISRSRGTTYYLDSTEGRFTISRDNANDTVYLQMNSLNPEDTAVYYCAAGRSPGDPSRTYLYDYWGQGTLVTVSS	-3.70

This collection of values is drawn from patent US20200317802A1.
